The measured values listed here are drawn from PubChem BioAssay (NCI).

Each entry below lists one item and its recorded growth value.
Test system: OVCAR-8 ovarian
ASSAY REMARKS: NCI-60 one-dose screen, 48 h (100 = growth as untreated, 0 = no growth, -100 = all killed)
RUN PARAMETERS: 10 µM unless noted
Method: Growth inhibition of the OVCAR-8 human tumor cell line is measured as a screen for anti-cancer activity. Cells are grown in 96 well plates and exposed to the test compound for 48 hours. Compounds are tested at a single concentration, which is 10^-5 M for most compounds. The reported endpoint is percent growth (GI% or GIPRCNT), where numbers from 0 - 100% represent growth inhibition, and numbers from -100% - 0 represent cell death. For example, a value of 40 represents 60% growth inhibition. […]
The panel holds about 83,000 compounds, 20% with a hit somewhere; the sample as a whole holds those more often.
Return type: number; implicit unit %.

Reference set, count: 5
[[record]]
compound = "Cc1ccc(NC(=O)C2CCC(CN3CCN(C)CC3)CC2)cc1Nc1nccc(-c2cccnc2)n1 (centres undefined)"
assayed_target = "OVCAR-8 ovarian"
quantity_name = "growth"
unit_of_measure = "%"
value = 111

[[record]]
compound = "COc1cc(-c2nc3cc(Cl)c(Cl)cc3[nH]2)ccc1OCC(=O)N=Nc1c(O)[nH]c2ccccc12"
assayed_target = "OVCAR-8 ovarian"
quantity_name = "growth"
unit_of_measure = "%"
value = -59

[[record]]
compound = "COc1ccc(C(=O)c2sc3nc(C)cc(C)c3c2N)cc1OC"
assayed_target = "OVCAR-8 ovarian"
quantity_name = "growth"
unit_of_measure = "%"
value = 65.7

[[record]]
compound = "COc1ccc(-c2nc3ccc(-c4nc5ccc(N6CCN(c7ccccc7)CC6)cc5[nH]4)cc3[nH]2)cc1OC"
assayed_target = "OVCAR-8 ovarian"
quantity_name = "growth"
unit_of_measure = "%"
value = -4.55

[[record]]
compound = "Cn1ccnc1C(=O)/C=C/c1ccc(CC(=O)Nc2ccccc2)cc1"
assayed_target = "OVCAR-8 ovarian"
quantity_name = "growth"
unit_of_measure = "%"
value = -0.35


Input COc1cc(-c2nc3ccccc3[nH]2)ccc1OCC(=O)N=Nc1c(O)[nH]c2ccc(Cl)cc12 . Output growth: -70.4

Input O=C(O)c1c(=O)cccc2ssc12 . Output growth: 24.1

Input COc1ccc2c(c1)c(-c1nonc1-c1cn(C)c3ccccc13)cn2C . Output growth: 35.6

Input CCCCn1c(-c2ccc(C(=O)O/N=C(\N)c3ccc4c(c3)OCO4)cc2)nc(-c2ccccc2)c1-c1ccccc1 . Output growth: 44.5

###

System: NCI-H522 lung
ASSAY REMARKS: NCI-60 one-dose screen, 48 h
RUN PARAMETERS: 10 µM unless noted
The panel holds about 83,000 compounds, 20% with a hit somewhere; the sample as a whole holds those more often. Activity calls are given as the source filed them. How the source made its calls: active means growth percent below 10; inactive means the rest.
API: response.call in Y = active, N = inactive

Example entries begin here.
[[record]]
compound = "Clc1ccc2c(NCCCCNc3nc(N4CCOCC4)nc4ccccc34)ccnc2c1"
assigned_category = "Y"

[[record]]
compound = "COc1ccc(C(=O)c2sc3nc(C)cc(C)c3c2N)cc1OC"
assigned_category = "Y"

[[record]]
compound = "c1ccc(-c2c(-c3ccccc3)[n+](Cc3ccc4ccccc4c3)c(-c3ccc(-c4nc5ccccc5s4)cc3)n2Cc2ccc3ccccc3c2)cc1"
assigned_category = "Y"

[[record]]
compound = "O=C1/C(=C(/c2ccccc2)N2CCOCC2)Cc2ccccc21"
assigned_category = "Y"


-- ask Which outcome was entered for the compound O=c1ccccc(-c2ccc(Br)cc2)c1O in this test?
-- reply N

-- ask Which outcome was entered for the compound O=C(NCCN1CCOCC1)Nc1ccc(-c2cc3c(Nc4ccc(Oc5cccc(C(F)(F)F)c5)c(Cl)c4)ncnc3s2)cc1 in this test?
-- reply N

-- ask Which outcome was entered for the compound Cc1ccc(NC(=O)/C=C/c2ccccc2)c(C(N)=O)c1 in this test?
-- reply Y

-- ask Which outcome was entered for the compound CCN(CC)c1ccc(/C=N\NC(=O)/C=C/C=C/c2ccc3c(c2)OCO3)c(O)c1 in this test?
-- reply N

-- ask Which outcome was entered for the compound Cc1nn(-c2cc(=O)[nH]c3ccc(Cl)cc23)c(N)c1C#N in this test?
-- reply N

-- ask Which outcome was entered for the compound Cc1cc(N2CCSCC2)nc(NC2CCCC(Nc3ccnc4cc(Cl)ccc34)C2)n1 (stereo not given) in this test?
-- reply Y

###

Test system: HS 578T breast
ASSAY REMARKS: NCI-60 one-dose screen, 48 h (100 = growth as untreated, 0 = no growth, -100 = all killed)
RUN PARAMETERS: 10 µM unless noted
Method: Growth inhibition of the HS 578T human tumor cell line is measured as a screen for anti-cancer activity. Cells are grown in 96 well plates and exposed to the test compound for 48 hours. Compounds are tested at a single concentration, which is 10^-5 M for most compounds. The reported endpoint is percent growth (GI% or GIPRCNT), where numbers from 0 - 100% represent growth inhibition, and numbers from -100% - 0 represent cell death. For example, a value of 40 represents 60% growth inhibition. […]
About 83,000 compounds went through this panel and 20% of them were active in at least one assay; those are over-represented in the sample as a whole.
QUANTITY NAME: growth (%)
Return type: number; implicit unit %.

Reference set, count: 10
[[record]]
compound = "c1ccc(CCNc2ncnc3[nH]ncc23)cc1"
quantity_name = "growth"
value = 66.3

[[record]]
compound = "O=c1cc(CSc2nnc(-c3ccc(F)cc3)o2)c2ccc3ccccc3c2o1"
quantity_name = "growth"
value = 95.5

[[record]]
compound = "COc1cc(-c2nn(-c3ccc(Br)cc3)cc2C(=O)O)ccc1O"
quantity_name = "growth"
value = 101

[[record]]
compound = "Cc1cc2nc3[nH]c4ccccc4c3nc2cc1C"
quantity_name = "growth"
value = 1.63

[[record]]
compound = "CC1=C[C@H]2c3c(c(O)c(O)c4oc5c(C)cccc5c(=O)c34)[C@H](c3cc(O)c(O)c4oc5c(C)cccc5c(=O)c34)[C@H]2C(C)(C)C1"
quantity_name = "growth"
value = -6.09

[[record]]
compound = "Oc1ccc(N=Cc2ccccc2O)cc1"
quantity_name = "growth"
value = 112

[[record]]
compound = "O=C(CCN1C(=O)/C(=C/c2ccc(Cl)cc2)SC1=S)NCCCN1CCOCC1"
quantity_name = "growth"
value = 90.9

[[record]]
compound = "CCOC(=O)c1c(C)oc2ncnc(N3CCN(C(=O)COc4ccc(SC)cc4)CC3)c12"
quantity_name = "growth"
value = 81.7

[[record]]
compound = "Cc1ccc2oc(=O)cc(C3c4ccc([nH]4)C(c4cc(=O)oc5ccc(C)cc45)c4ccc([nH]4)C(c4cc(=O)oc5ccc(C)cc45)c4ccc([nH]4)C(c4cc(=O)oc5ccc(C)cc45)c4ccc3[nH]4)c2c1 (centres undefined)"
quantity_name = "growth"
value = -37

[[record]]
compound = "CCOC(=O)C(C)(C#N)C1C=CCCC1 (centres undefined)"
quantity_name = "growth"
value = 84.1


Input O=C(N=Nc1c(O)[nH]c2ccc(Br)cc12)c1cc(-c2ccccc2)on1 . Output growth: 99.1

Input O=C(COc1ccc(/C=C2\COc3ccccc3C2=O)cc1)Nc1nccs1 . Output growth: -38.3

Input COc1ccc(-n2nc(C)c3c(Oc4ccc(NC(=O)Nc5c(Cl)cccc5Cl)cc4)ncnc32)cc1 . Output growth: 92

Input C=C1C(=O)O[C@H]2[C@H]1CC/C(COC(=O)c1cc3cc(OC)ccc3[nH]1)=C\CC[C@@]1(C)O[C@@H]21 . Output growth: -3.89

Input CCOC(=O)n1cc(-c2nonc2-c2cn(C)c3ncccc23)c2ccccc21 . Output growth: 77.7

Input Cc1cc(NS(=O)(=O)c2ccc(-c3cnc(C4CC4)o3)cc2)ccc1Cl . Output growth: 11.9

Input C=CC(=O)Nc1cccc(Nc2nc(SC)nc(-c3cccc([N+](=O)[O-])c3)c2C#N)c1 . Output growth: 53.7

Input NC(=NCCCOc1ccc(Cl)cc1)Nc1ccc(C(F)(F)F)cc1 . Output growth: 52.4

Input CN1CCN(c2nc(NCCCNc3ccnc4cc(Cl)ccc34)c3ccccc3n2)CC1 . Output growth: 79.5

###

System: NCI-H226 lung
ASSAY REMARKS: NCI-60 one-dose screen, 48 h
RUN PARAMETERS: 10 µM unless noted
About 83,000 compounds went through this panel and 20% of them were active in at least one assay; those are over-represented in the sample as a whole. Calls of active or inactive are those of the source. Rule for the calls: active = growth percent below 10; inactive = the rest.
API: response.call in active, inactive

Example entries begin here.
[[record]]
compound = "CCCCC[C@H]1C/C=C2/C(=O)C=C[C@@H]2C/C=C\\CCCC(=O)O1"
assayed_target = "NCI-H226 lung"
assigned_category = "active"

[[record]]
compound = "FC(F)(F)c1ccc(-c2cn3nc(-c4c[nH]c5ccc(Br)cc45)sc3n2)cc1"
assayed_target = "NCI-H226 lung"
assigned_category = "inactive"

[[record]]
compound = "COc1cccc(NC(=O)c2sc3nc(C)c(C(C)=O)cc3c2N)c1"
assayed_target = "NCI-H226 lung"
assigned_category = "inactive"


-- ask Which outcome was entered for the compound NCCNc1nc(Nc2ccc(-c3nc4ccccc4[nH]3)cc2)c2cn[nH]c2n1 in this test?
-- reply inactive

-- ask Which outcome was entered for the compound CC(C)CSc1nc(N)nc2c1ncn2C1OC(CO)C(O)C1O (stereo not given) in this test?
-- reply inactive

-- ask Which outcome was entered for the compound O=S(=O)(Nc1ccc(Br)c(Cl)c1)c1ccc(-c2cnc(C3CC3)o2)cc1 in this test?
-- reply inactive

-- ask Which outcome was entered for the compound CC(C)(CCCN=C(N)Nc1ccc(Cl)cc1)c1ccc(F)cc1 in this test?
-- reply inactive

-- ask Which outcome was entered for the compound Fc1ccc2[nH]cc(SSc3c[nH]c4ccc(F)cc34)c2c1 in this test?
-- reply inactive
